PROTOCOL_SUMMARY: Toxicity in po dosed Mus musculus albino (mouse)
Assay type: organism-based
EXPERIMENTAL_SETUP: in vivo
ENDPOINT_LABEL: LD50

>  <COMPOUND>
O=S1(=O)CC(c2ccc(Cl)cc2)NC(c2ccc(Cl)cc2)C1 (configuration not stated)

>  <LD50>
≤ 1000 mg/kg

$$$$

Q) Recorded LD50 of O=S1(=O)CC(c2ccc(Cl)cc2)N(CO)C(c2ccc(Cl)cc2)C1 (configuration not stated) , please.
A) ≤ 1000 mg/kg
